Tested on: HOP-62 NSCLC
Assay Text: NCI tumour cell line growth inhibition, 48 h
Metric Name: GI50

Task: Supply GI50 value. Item: COc1cc2ncn(-c3cc(OCc4cccs4)c(C(N)=O)s3)c2cc1OC
Result: 1.53 µM

Task: Supply GI50 value. Item: O=C(O)CCNC1CCCCC1
Result: > 100 µM

Task: Supply GI50 value. Item: O=S(=O)(NC1=NCCN1C(=S)SN1CCn2c1nsc2=S)c1cccc(Cl)c1
Result: 18.5 µM

Task: Supply GI50 value. Item: CC/C=C\C[C@H](F)C/C=C1/C(=O)C=C[C@@H]1C/C=C\CCCC(=O)O
Result: 7.65 µM

Task: Supply GI50 value. Item: CCCCCCCCn1ccc2cc(NC(=O)Cn3cc(CN4CCCC4)nn3)ccc21
Result: 1.75 µM

Task: Supply GI50 value. Item: CCCC(=O)OCC1OC(n2cnc3c(=S)nc[nH]c32)C(OC(=O)CCC)C1OC(=O)CCC (stereo not drawn)
Result: 2.84 µM

Task: Supply GI50 value. Item: CC[C@@]1(c2ccccc2)C2=C(CC(C)(C)CC2=O)Nc2[nH]ncc21
Result: > 100 µM

Task: Supply GI50 value. Item: N#CC(C#N)=C1Nc2ccccc2S1
Result: 40.3 µM
